For each entry below, report its Kd value.
Tested on: PR20, poly(PR) dipeptide repeat peptide
Experiment: BLI
Conditions: apparent Kd, 1:1 equilibrium fit; BLI: 10 mM Tris-HCl, 1 mM disodium EDTA, pH 8.0, 150 mM NaCl, 0.1 mg/ml BSA, 0.01% Tween-20, 25 C; RNA on streptavidin …
Express the result in nM but write the number alone.

Qu. Enter Kd (test system PR20, poly(PR) dipeptide repeat peptide) for AUAAUAUAAUAUAAUAUAAUAUAAU [poly(AUAAU) RNA]
Ans. 11.1

Qu. Enter Kd (test system PR20, poly(PR) dipeptide repeat peptide) for GAGAAGAGAAGAGAAGAGAAGAGAA [poly(GAAGA) RNA]
Ans. 2.6
